FYI, the data here is from ChEMBL document CHEMBL3259809.

I'd appreciate it if you could supply pIC50 values for the items below.
System: DU-145
PROTOCOL_TEXT: Cytotoxicity against human DU145 cells
Format: functional, cell-based
Please treat pIC50 as minus the base-10 logarithm of the molar concentration.

Prompt: Item C=C[C@H]1OC(=O)N(c2ccc(N3CCOCC3)c(F)c2)[C@@H]1c1ccc(OC)cc1 has what recorded pIC50?
Completion: 4.32

Prompt: Query (compound): C=CC(=O)OCCC(=O)OC[C@@H]1OC(=O)N(c2ccc(N3CCOCC3)c(F)c2)[C@@H]1c1ccc(OC)cc1 ; field requested: pIC50
Completion: 4.50

Prompt: Which pIC50 is reported for this compound? C=C[C@H]1OC(=O)N[C@@H]1c1ccc(OC)cc1
Completion: 4.48

Prompt: Tell me the measured pIC50 of COc1ccc([C@@H]2[C@@H](CCO)OC(=O)N2c2ccc(N3CCOCC3)c(F)c2)cc1 , please.
Completion: 4.16

Prompt: Given the compound COc1cccc2c1C(=O)c1c(O)c3c(c(O)c1C2=O)C[C@@](O)(C(=O)CO)C[C@@H]3O[C@H]1C[C@H](N)[C@H](O)[C@H](C)O1 [DOXORUBICIN] , what is its reported pIC50?
Completion: 5.17

Prompt: Using the record for CC[C@H]1OC(=O)N(c2ccc(N3CCOCC3)c(F)c2)[C@@H]1c1ccc(OC)cc1 , report its pIC50.
Completion: 5.02

---

System: A549
PROTOCOL_TEXT: Cytotoxicity against human A549 cells
Format: functional, cell-based
Would you mind telling me the reported pIC50 of each entry?
Quick note: pIC50 means taking -log10 of the concentration in moles per liter.

Prompt: Give pIC50 (A549) of the following compound: COc1ccc([C@@H]2[C@@H](CNC(C)=O)OC(=O)N2c2ccc(N3CCOCC3)c(F)c2)cc1
Completion: 4.26

Prompt: A549 / pIC50 / COc1ccc([C@@H]2[C@@H](CN)OC(=O)N2c2ccc(N3CCOCC3)c(F)c2)cc1 : value?
Completion: 4.67

Prompt: What reported pIC50 corresponds to COc1ccc([C@@H]2[C@H](COC(=O)c3ccccc3)OC(=O)N2c2ccc(N3CCOCC3)c(F)c2)cc1 on A549?
Completion: 4.61

Prompt: Checklist item: pIC50 tested on A549, entry COc1ccc([C@H]2NC(=O)O[C@H]2CO)cc1 , value?
Completion: 4.59

Prompt: Notebook entry, A549 assay: pIC50 of COc1ccc([C@@H]2[C@@H](COC(=O)c3ccccc3)OC(=O)N2c2ccc(N3CCOCC3)c(F)c2)cc1 = ?
Completion: 4.62

Prompt: Given the entry COc1ccc([C@@H]2[C@H](CO)OC(=O)N2c2ccc(N3CCOCC3)c(F)c2)cc1 , what pIC50 was observed with A549?
Completion: 4.36

Prompt: Hi! What's the reported pIC50 for C=C[C@H]1OC(=O)N(c2ccc(N3CCOCC3)c(F)c2)[C@@H]1c1ccc(OC)cc1 on A549?
Completion: 4.61

Prompt: Record lookup: for A549, what pIC50 belongs to CC[C@H]1OC(=O)N(c2ccc(N3CCOCC3)c(F)c2)[C@@H]1c1ccc(OC)cc1 ?
Completion: 4.87

Prompt: Give recorded pIC50 with A549 for the following compound: COc1ccc([C@H]2NC(=O)O[C@@H]2CO)cc1
Completion: 4.51

Prompt: Give pIC50 (A549) of the following compound: C=CC(=O)OCCC(=O)OC[C@@H]1OC(=O)N(c2ccc(N3CCOCC3)c(F)c2)[C@@H]1c1ccc(OC)cc1
Completion: 4.37

Prompt: Field: pIC50 (A549). Entry: C=CC(=O)OCCC(=O)OC[C@H]1OC(=O)N(c2ccc(N3CCOCC3)c(F)c2)[C@@H]1c1ccc(OC)cc1
Completion: 4.85

Prompt: Query the reported pIC50 for A549; item: COc1ccc([C@@H]2[C@@H](CCO)OC(=O)N2c2ccc(N3CCOCC3)c(F)c2)cc1
Completion: 4.52

Prompt: Value wanted: pIC50 (A549) of entry COc1ccc([C@@H]2[C@@H](CO)OC(=O)N2c2ccc(N3CCOCC3)c(F)c2)cc1
Completion: 4.61

Prompt: Give the reported pIC50 for COc1cccc2c1C(=O)c1c(O)c3c(c(O)c1C2=O)C[C@@](O)(C(=O)CO)C[C@@H]3O[C@H]1C[C@H](N)[C@H](O)[C@H](C)O1 [DOXORUBICIN] (system: A549).
Completion: 5.08

Prompt: Param readout = pIC50; param system = A549; param query = C=C[C@H]1OC(=O)N[C@@H]1c1ccc(OC)cc1 ; response: value
Completion: 4.67
